biological target: PI3-Kα (Mus musculus (Mouse)); assay: PI3-Kα biochemical assay (in vitro kinase assay, fluorescence polarization); details: Ki calculated from IC50, [ATP]=30 uM, Km=25 uM;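 note: Insect-cell-expressed mouse p110/p85 complex converting PI(4,5)P2, product PI(3,4,5)P3 detected by displacing TAMRA-tagged PI(3,4,5)P3 from Grip1 PH domain, lower polarization means more product, room temperature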
Sequence (P42337 whole entry, the tested form may be a part): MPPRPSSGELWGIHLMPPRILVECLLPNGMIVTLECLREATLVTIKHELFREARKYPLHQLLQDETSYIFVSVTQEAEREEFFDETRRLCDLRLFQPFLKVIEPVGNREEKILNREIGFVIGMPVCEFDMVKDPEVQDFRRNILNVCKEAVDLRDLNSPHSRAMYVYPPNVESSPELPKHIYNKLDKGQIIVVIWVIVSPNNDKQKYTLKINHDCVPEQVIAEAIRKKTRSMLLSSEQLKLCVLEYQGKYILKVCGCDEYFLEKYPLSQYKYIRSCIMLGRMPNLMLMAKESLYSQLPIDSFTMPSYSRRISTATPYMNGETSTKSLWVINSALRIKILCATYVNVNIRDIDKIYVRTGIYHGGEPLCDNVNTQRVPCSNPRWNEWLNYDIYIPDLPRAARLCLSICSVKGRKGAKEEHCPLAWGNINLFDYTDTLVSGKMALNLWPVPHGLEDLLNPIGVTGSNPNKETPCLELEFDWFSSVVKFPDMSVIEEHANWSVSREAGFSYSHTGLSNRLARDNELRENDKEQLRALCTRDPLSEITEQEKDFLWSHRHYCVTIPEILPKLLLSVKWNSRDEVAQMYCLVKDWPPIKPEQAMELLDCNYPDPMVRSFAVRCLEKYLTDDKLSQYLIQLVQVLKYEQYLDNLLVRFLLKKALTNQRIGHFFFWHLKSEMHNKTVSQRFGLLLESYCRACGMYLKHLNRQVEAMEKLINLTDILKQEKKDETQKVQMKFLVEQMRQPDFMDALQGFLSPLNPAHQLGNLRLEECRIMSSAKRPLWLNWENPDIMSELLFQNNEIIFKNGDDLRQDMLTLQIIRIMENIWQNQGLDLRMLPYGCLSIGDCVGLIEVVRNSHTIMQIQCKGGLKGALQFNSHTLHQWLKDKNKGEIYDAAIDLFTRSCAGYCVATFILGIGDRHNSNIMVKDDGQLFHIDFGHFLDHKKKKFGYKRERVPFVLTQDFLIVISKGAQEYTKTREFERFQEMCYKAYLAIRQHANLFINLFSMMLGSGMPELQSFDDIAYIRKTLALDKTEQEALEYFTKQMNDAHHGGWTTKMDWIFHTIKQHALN
Sequence (P26450 whole entry partner, the tested form may be a part): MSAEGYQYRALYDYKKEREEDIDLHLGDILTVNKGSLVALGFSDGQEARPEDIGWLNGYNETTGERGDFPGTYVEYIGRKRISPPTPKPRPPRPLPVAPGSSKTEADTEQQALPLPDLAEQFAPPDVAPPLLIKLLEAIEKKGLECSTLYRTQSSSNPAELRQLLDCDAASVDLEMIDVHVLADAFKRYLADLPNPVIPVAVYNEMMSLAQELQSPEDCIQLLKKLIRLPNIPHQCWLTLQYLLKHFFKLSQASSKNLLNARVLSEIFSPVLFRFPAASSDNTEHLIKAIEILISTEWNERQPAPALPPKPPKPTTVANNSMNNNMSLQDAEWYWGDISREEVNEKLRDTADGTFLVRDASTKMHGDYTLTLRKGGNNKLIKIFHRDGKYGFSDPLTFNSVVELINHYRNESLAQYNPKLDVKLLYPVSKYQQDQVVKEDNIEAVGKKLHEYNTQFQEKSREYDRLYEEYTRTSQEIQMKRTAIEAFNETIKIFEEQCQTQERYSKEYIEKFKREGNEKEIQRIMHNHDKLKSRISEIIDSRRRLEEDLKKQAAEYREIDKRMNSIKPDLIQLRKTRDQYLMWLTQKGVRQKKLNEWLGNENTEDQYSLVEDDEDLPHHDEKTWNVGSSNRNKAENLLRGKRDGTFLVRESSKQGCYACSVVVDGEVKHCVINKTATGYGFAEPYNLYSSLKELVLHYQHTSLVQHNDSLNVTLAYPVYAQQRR
Returns Met if the recorded PI3Ka Ki is greater than or equal to 1 nM, and Not met otherwise.

{"columns": ["CHEM SMILES", "CLASSIFICATION"],
 "data": [
  ["COc1ncc(-c2ccc3ncc4c(c3n2)n(C2CCN(C(=O)CN)CC2)c(=O)n4C)cn1", "Met"],
  ["Cn1c(=O)n([C@H]2CC[C@H](O)CC2)c2c3nc(-c4ccc5[nH]ncc5c4)ccc3ncc21", "Not met"],
  ["CN(C)CC(=O)N1CCC(n2c(=O)n(C)c3cnc4ccc(-c5cnc6ccccc6c5)nc4c32)CC1", "Met"],
  ["Cn1c(=O)n([C@H]2CC[C@H](O)CC2)c2c3nc(-c4cnc(N)nc4)ccc3ncc21", "Not met"],
  ["CN(C)c1ccc(-c2ccc3ncc4c(c3n2)n(-c2ccc(C(C)(C)C#N)cc2)c(=O)n4C)cn1", "Met"],
  ["Cn1c(=O)n(C2CCN(C(=O)CO)CC2)c2c3nc(-c4cnc5[nH]ncc5c4)ccc3ncc21", "Not met"],
  ["CN(C)c1ccc(-c2ccc3ncc4c(c3n2)n([C@H]2CC[C@H](OCCO)CC2)c(=O)n4C)cn1", "Not met"],
  ["Cn1c(=O)n(C2CCN(C(=O)C(C)(C)N)CC2)c2c3nc(-c4cnc5ccccc5c4)ccc3ncc21", "Met"],
  ["COc1ccc(-c2ccc3ncc4c(c3n2)n(CCN2CCNCC2)c(=O)n4C)cn1", "Met"],
  ["Cc1ccc(-c2ccc3ncc4c(c3n2)n([C@H]2CC[C@H](OCCO)CC2)c(=O)n4C)cn1", "Met"],
  ["CCC(=O)N1CCC(n2c(=O)n(C)c3cnc4ccc(-c5cnc6ccccc6c5)nc4c32)CC1", "Not met"],
  ["C[C@@H](O)C(=O)N1CCC(n2c(=O)n(C)c3cnc4ccc(-c5cnc6[nH]ncc6c5)nc4c32)CC1", "Not met"],
  ["Cn1c(=O)n([C@H]2CC[C@H](OCCO)CC2)c2c3nc(-c4cnc5ccccc5c4)ccc3ncc21", "Met"]
]}
